test system: tumor endothelial cells (LL/2 lung cancer tumor); assay: Lung LL2 ex vivo model of tumor angiogenesis; type: cell-based, mouse; details: Mus musculus, Endothelial cell, 48 h, read-out: Cell death
metricName: cytotoxicity at 40 µM (%)
Express the result in % but write the number alone.

Sample answers from the record:
CCN(c1c(S(=O)(=O)c2ccc(OC)cc2)cnc2cc(OC)c(OC)cc12)C(C)C [compound 294]; 50
CCc1ccc(S(=O)(=O)c2cnc3ccc(OC(F)(F)F)cc3c2N(C)Cc2ccccc2)cc1 [compound 49]; 30

Which measured cytotoxicity at 40 µM value corresponds to CCCCOc1ccc(S(=O)(=O)c2cnc3ccc(C(=O)OCC)cc3c2N2CCSCC2)cc1 [compound 191] ?
30

What value of cytotoxicity at 40 µM has been recorded for this entry: CCCCOc1ccc(S(=O)(=O)c2cnc3ccc([S+](C)[O-])cc3c2N2CCC(N3CCN(CCO)CC3)CC2)cc1 (centres unmarked) [compound 236]
5

Report cytotoxicity at 40 µM for CCc1ccc(S(=O)(=O)c2cnc3ccc([N+](=O)[O-])cc3c2N2CCCN(C)CC2)cc1 [compound 76] please.
20

----------
Tested on: tumor endothelial cells (LL/2 lung cancer tumor)
Assay: Lung LL2 ex vivo model of tumor angiogenesis
Format: cell-based, mouse
Settings: Mus musculus, Endothelial cell, 48 h, read-out: Cell death
Method: This example describes a procedure to prepare a primary tumor angiogenesis model for assessing the efficacy of anti-cancer candidate agents. 1. […] 9. When the assay is ready to be analyzed for cell death (e.g., 48 hours after drug addition), prepare the dye mixture by mixing 6 μL of green dye to stain live cells (5 mg/mL Fluorescein diacetate or FDA in DMSO) with 30 μL of red dye (2.5 mg/mL Propidium iodide or PI in PBS) to stain dead cells in an Eppendorf tube. […]
metricName: cytotoxicity at 40 µM
Could you kindly put the unit after your number?

Before answering, review these 4 worked examples.
CCCCOc1ccc(S(=O)(=O)c2cnc3ccc(C(=O)OCC)cc3c2N2CCC(N3CCCCCC3)CC2)cc1; 100%
CCCCOc1ccc(S(=O)(=O)c2cnc3ccc(C(=O)OCC)cc3c2N2CCC(N3CCC(CO)CC3)CC2)cc1; 100%
CCCCOc1ccc(S(=O)(=O)c2cnc3ccc(SC)cc3c2N2CCC(N3CCCN(C)CC3)CC2)cc1; 100%
CCOC(=O)c1ccc2ncc(S(=O)(=O)c3ccc(CC)cc3)c(N3CCC(O)CC3)c2c1; 30%

Please look at the following compound next.
Can you share its cytotoxicity at 40 µM? I mean this compound: COc1ccc(S(=O)(=O)c2cnc3ccc(OC(F)(F)F)cc3c2N2CCCN(C)CC2)cc1OC
40%

----------
tested on: tumor endothelial cells (LL/2 lung cancer tumor); experiment: Lung LL2 ex vivo model of tumor angiogenesis; assay type: cell-based, mouse; settings: Mus musculus, Endothelial cell, 48 h, read-out: Cell death
Response field label: string, one of true (1) (cytotoxicity at 40 µM strictly below 40%) or false (0).

Field: example entries. Status: answers known.
COc1ccc(S(=O)(=O)c2cnc3ccc(CC#N)cc3c2NN2CCN(C)CC2)cc1 [compound 99]; true (1)
COc1ccc(S(=O)(=O)c2cnc3cc(OC)c(OC)cc3c2N2CCC(=O)N(C)CC2)cc1 [compound 328]; true (1)
CCOC(=O)c1ccc2ncc(S(=O)(=O)c3ccc(CC)cc3)c(NN3CCN(C)CC3)c2c1 [compound 84]; false (0)
COc1ccc(S(=O)(=O)c2cnc3ccc(C(=O)N(C)C)cc3c2N2CCC(N3CCCC3=O)CC2)cc1 [compound 332]; true (1)

Turning now to a further record.
Confirm or reject: cytotoxicity at 40 µM of CCCCOc1ccc(S(=O)(=O)c2cnc3ccc([S+](C)[O-])cc3c2N2CCC(N3CCCC(O)C3)CC2)cc1 (stereo not drawn) [compound 208] lies strictly below 40%
false (0)
